Test system: LLC-PK1
assay_info: Cytotoxicity against pig LLC-PK1 cells assessed as cell viability after 48 hrs by neutral red uptake assay
Assay type: cell-based, Sus scrofa
condition_description: llc-pk1, 48 h
measured_quantity: Activity

Input line: May I ask what Activity has been recorded for Cc1ccc(-c2nc(C[C@H](N)C(=O)N[C@@H](CCCNC(=N)N)C(=O)NCc3ccccc3)c[nH]2)cc1 ?
Output line: > 10 µg/mL

Input line: Next record, please: CC(C)(C)OC(=O)N[C@@H](Cc1c[nH]c(-c2ccccc2)n1)C(=O)N[C@@H](CCCNC(=N)N)C(=O)NCc1ccccc1
Output line: > 10 µg/mL

Input line: Next record, please: COC(=O)[C@H](CCCNC(=N)N)NC(=O)[C@H](Cc1c[nH]c(-c2ccc(-c3ccccc3)cc2)n1)NC(=O)OC(C)(C)C
Output line: > 10 µg/mL

Input line: Next record, please: Cc1ccc(-c2nc(C[C@H](NC(=O)OC(C)(C)C)C(=O)N[C@@H](CCCNC(=N)N)C(=O)NCc3ccccc3)c[nH]2)cc1
Output line: > 10 µg/mL

Input line: Next record, please: COC(=O)[C@H](Cc1c[nH]c(-c2ccccc2)n1)NC(=O)[C@@H](N)Cc1c[nH]c2ccccc12
Output line: > 10 µg/mL

Input line: Next record, please: CC(C)(C)OC(=O)N[C@@H](Cc1c[nH]c(-c2ccc(C(C)(C)C)cc2)n1)C(=O)N[C@@H](CCCNC(=N)N)C(=O)NCc1ccccc1
Output line: > 10 µg/mL

Input line: Next record, please: COC(=O)[C@H](Cc1c[nH]c(-c2ccc(C)cc2)n1)NC(=O)[C@H](Cc1c[nH]c2ccccc12)NC(=O)OC(C)(C)C
Output line: > 10 µg/mL

* * *

Reported Activity is given for each of the following compounds.
System: SK-MEL
assay_info: Cytotoxicity against human SK-MEL cells assessed as cell viability after 48 hrs by neutral red uptake assay
Format: cell-based
Residues, ends and D or L forms follow the SMILES beside them. *: point of attachment. NHBn = c1ccc(CN*)cc1

Use the examples below as a reference point.
compound	Activity
COC(=O)[C@H](Cc1c[nH]c(-c2ccc(C)cc2)n1)NC(=O)[C@H](Cc1c[nH]c2ccccc12)NC(=O)OC(C)(C)C	> 10 µg/mL
N[C@@H](Cc1c[nH]c2ccccc12)C(=O)N[C@@H](Cc1c[nH]cn1)C(=O)NCc1ccccc1 (H-Trp-His-NHBn)	> 10 µg/mL
COC(=O)[C@H](Cc1c[nH]cn1)NC(=O)[C@@H](N)Cc1c[nH]c2ccccc12 (H-Trp-His-OMe)	> 10 µg/mL

Input line: Write down the reported Activity of COC(=O)[C@H](Cc1c[nH]c(-c2cccc3ccccc23)n1)NC(=O)[C@H](Cc1c[nH]c2ccccc12)NC(=O)OC(C)(C)C , test system: SK-MEL.
Output line: > 10 µg/mL

Input line: Next record, please: N[C@@H](Cc1c[nH]c2ccccc12)C(=O)N[C@@H](Cc1c[nH]c(-c2cccc3ccccc23)n1)C(=O)NCc1ccccc1
Output line: > 10 µg/mL

Input line: Next record, please: COC(=O)[C@H](CCCNC(=N)N)NC(=O)[C@@H](N)Cc1c[nH]c(-c2ccc(C)cc2)n1
Output line: > 10 µg/mL

Input line: Next record, please: COC(=O)[C@H](CCCNC(=N)N)NC(=O)[C@@H](N)Cc1c[nH]cn1 (H-His-Arg-OMe)
Output line: > 10 µg/mL

* * *

assay_info: Selectivity index, ratio of cytotoxicity against human SKOV3 cells to IC50 for Cryptococcus neoformans ATCC 90113
Format: toxicity, cell-based, SK-OV-3
condition_description: read-out: Selectivity Index
measured_quantity: selectivity ratio

Use the examples below as a reference point.
CC(C)(C)c1ccc(-c2nc(C[C@H](N)C(=O)N[C@@H](CCCNC(=N)N)C(=O)NCc3ccccc3)c[nH]2)cc1 > 62.5
CC(C)(C)OC(=O)N[C@@H](Cc1c[nH]c(-c2ccccc2)n1)C(=O)N[C@@H](CCCNC(=N)N)C(=O)NCc1ccccc1 > 3.9
Cc1ccc(-c2nc(C[C@H](NC(=O)OC(C)(C)C)C(=O)N[C@@H](CCCNC(=N)N)C(=O)NCc3ccccc3)c[nH]2)cc1 > 1.7
CC(C)(C)c1ccc(-c2nc(C[C@H](NC(=O)[C@@H](N)Cc3c[nH]c4ccccc34)C(=O)NCc3ccccc3)c[nH]2)cc1 > 2.21
COC(=O)[C@H](CCCNC(=N)N)NC(=O)[C@H](Cc1c[nH]c(-c2ccc(-c3ccccc3)cc2)n1)NC(=O)OC(C)(C)C > 2
COc1ccc(-c2nc(C[C@H](NC(=O)OC(C)(C)C)C(=O)N[C@@H](CCCNC(=N)N)C(=O)NCc3ccccc3)c[nH]2)cc1 > 1.7

Input line: May I ask what selectivity ratio has been recorded for COC(=O)[C@H](CCCNC(=N)N)NC(=O)[C@@H](N)Cc1c[nH]c(-c2ccc(-c3ccccc3)cc2)n1 ?
Output line: > 1.8

* * *

assay_info: Selectivity index, ratio of cytotoxicity against pig LLC-PK1 cells to IC50 for Cryptococcus neoformans ATCC 90113
Format: toxicity, cell-based
condition_description: read-out: Selectivity Index
measured_quantity: selectivity ratio

Use the examples below as a reference point.
COC(=O)[C@H](Cc1c[nH]c(-c2ccc(-c3ccccc3)cc2)n1)NC(=O)[C@@H](N)Cc1c[nH]c2ccccc12 > 2.6
CC(C)(C)OC(=O)N[C@@H](Cc1c[nH]c(-c2ccccc2)n1)C(=O)N[C@@H](CCCNC(=N)N)C(=O)NCc1ccccc1 > 3.9
COC(=O)[C@H](Cc1c[nH]c(-c2ccccc2)n1)NC(=O)[C@@H](N)Cc1c[nH]c2ccccc12 > 1.3
COC(=O)[C@H](CCCNC(=N)N)NC(=O)[C@H](Cc1c[nH]c(-c2ccc(-c3ccccc3)cc2)n1)NC(=O)OC(C)(C)C > 2
COC(=O)[C@H](CCCNC(=N)N)NC(=O)[C@H](Cc1c[nH]c(-c2cccc3ccccc23)n1)NC(=O)OC(C)(C)C > 8

Input line: May I ask what selectivity ratio has been recorded for COC(=O)[C@H](CCCNC(=N)N)NC(=O)[C@@H](N)Cc1c[nH]c(-c2ccc(-c3ccccc3)cc2)n1 ?
Output line: > 1.8

Input line: Next record, please: CC(C)(C)c1ccc(-c2nc(C[C@H](NC(=O)[C@@H](N)Cc3c[nH]c4ccccc34)C(=O)NCc3ccccc3)c[nH]2)cc1
Output line: > 2.21

Input line: Next record, please: N[C@@H](Cc1c[nH]c2ccccc12)C(=O)N[C@@H](Cc1c[nH]c(-c2ccccc2)n1)C(=O)NCc1ccccc1
Output line: > 4.9

Input line: Next record, please: N=C(N)NCCC[C@H](NC(=O)[C@@H](N)Cc1c[nH]c(-c2ccccc2)n1)C(=O)NCc1ccccc1
Output line: > 8.2

Input line: Next record, please: Cc1ccc(-c2nc(C[C@H](N)C(=O)N[C@@H](CCCNC(=N)N)C(=O)NCc3ccccc3)c[nH]2)cc1
Output line: > 4.7

Input line: Next record, please: N[C@@H](Cc1c[nH]c2ccccc12)C(=O)N[C@@H](Cc1c[nH]c(-c2ccc(-c3ccccc3)cc2)n1)C(=O)NCc1ccccc1
Output line: > 18.5

Input line: Next record, please: Cc1ccc(-c2nc(C[C@H](NC(=O)OC(C)(C)C)C(=O)N[C@@H](CCCNC(=N)N)C(=O)NCc3ccccc3)c[nH]2)cc1
Output line: > 1.7

Input line: Next record, please: CC(C)(C)c1ccc(-c2nc(C[C@H](N)C(=O)N[C@@H](CCCNC(=N)N)C(=O)NCc3ccccc3)c[nH]2)cc1
Output line: > 62.5

Input line: Next record, please: COC(=O)[C@H](CCCNC(=N)N)NC(=O)[C@@H](N)Cc1c[nH]c(-c2cccc3ccccc23)n1
Output line: > 7.3

* * *

assay_info: Selectivity index, ratio of cytotoxicity against african green monkey Vero cells to IC50 for Cryptococcus neoformans ATCC 90113
Format: toxicity, cell-based
condition_description: read-out: Selectivity Index
measured_quantity: selectivity ratio

Use the examples below as a reference point.
COC(=O)[C@H](CCCNC(=N)N)NC(=O)[C@H](Cc1c[nH]c(-c2ccc(-c3ccccc3)cc2)n1)NC(=O)OC(C)(C)C > 2
CC(C)(C)c1ccc(-c2nc(C[C@H](N)C(=O)N[C@@H](CCCNC(=N)N)C(=O)NCc3ccccc3)c[nH]2)cc1 > 62.5
CC(C)(C)OC(=O)N[C@@H](Cc1c[nH]c(-c2ccc(-c3ccccc3)cc2)n1)C(=O)N[C@@H](CCCNC(=N)N)C(=O)NCc1ccccc1 > 9.2
N[C@@H](Cc1c[nH]c2ccccc12)C(=O)N[C@@H](Cc1c[nH]c(-c2ccc(-c3ccccc3)cc2)n1)C(=O)NCc1ccccc1 > 18.5
COC(=O)[C@H](CCCNC(=N)N)NC(=O)[C@@H](N)Cc1c[nH]c(-c2ccc(-c3ccccc3)cc2)n1 > 1.8

Input line: May I ask what selectivity ratio has been recorded for N[C@@H](Cc1c[nH]c2ccccc12)C(=O)N[C@@H](Cc1c[nH]c(-c2ccccc2)n1)C(=O)NCc1ccccc1 ?
Output line: > 4.9
